system_tested: Quadruplex DNA
method_notes: Binding affinity to SS12 G-Quadruplex (unknown origin) assessed as dissociation constant by fluorescence spectroscopy
Type: nucleic-acid assay

# smiles_string, system_tested, Kd
rows = [
    ("CCN(CC)c1ccc2cc(/C=C/c3ccc4cc(F)c(NCCN5CCCC5)cc4[n+]3C)c(=O)oc2c1.[I-]", "Quadruplex DNA", "> 5 µM"),
]

* * *

Tested on: HPAF-II
method_notes: Cytotoxicity against human HPAF-II cells harboring KRAS G12D mutant assessed as cell growth inhibition incubated for 24 hrs by MTT assay
Format: functional, cell-based
pIC50: −log10 of the molar value.
The following compounds are shown together with reported pIC50 values.

# smiles_string, pIC50
records = [
    ("CCN(CC)c1ccc2cc(/C=C/c3ccc4cc(F)c(NCCN5CCCC5)cc4[n+]3C)c(=O)oc2c1.[I-]", 5.27),
    ("CCN(CC)c1ccc2cc(/C=C/c3ccc4cc(F)c(N5CCN(C)CC5)cc4[n+]3C)c(=O)oc2c1", 4.49),
]

* * *

system_tested: Quadruplex DNA
method_notes: Binding affinity to HP12 G-Quadruplex (unknown origin) assessed as dissociation constant by fluorescence spectroscopy
Assay type: nucleic-acid assay
pKd: −log10 of the molar value.

# smiles_string, pKd
records = [
    ("CCN(CC)c1ccc2cc(/C=C/c3ccc4cc(F)c(NCCN5CCCC5)cc4[n+]3C)c(=O)oc2c1.[I-]", "< 5.30"),
]

* * *

system_tested: Quadruplex DNA
method_notes: Binding affinity to KRAS utr-z G-Quadruplex (unknown origin) assessed as dissociation constant by fluorescence spectroscopy
Type: nucleic-acid assay

# smiles_string, Kd / nM
data = [
    ("CCN(CC)c1ccc2cc(/C=C/c3ccc4cc(F)c(NCCN5CCCC5)cc4[n+]3C)c(=O)oc2c1.[I-]", 2300),
]

* * *

Test system: NCM460
method_notes: Cytotoxicity against human NCM460 cells harboring wild-type KRAS assessed as cell growth inhibition incubated for 24 hrs by MTT assay
Format: functional, cell-based
protocol_conditions: NCM460, 24 h

# smiles_string, IC50
rows = [
    ("CCN(CC)c1ccc2cc(/C=C/c3cc(N4CCN(C)CC4)c4cc(F)c(NCc5cn(CCC(=O)OC)nn5)cc4[n+]3C)c(=O)oc2c1", "> 40 µM"),
    ("CCN(CC)c1ccc2cc(/C=C/c3ccc4cc(F)c(N5CCN(Cc6cn(CCCO)nn6)CC5)cc4[n+]3C)c(=O)oc2c1", "> 40 µM"),
    ("CCN(CC)c1ccc2cc(/C=C/c3ccc4cc(F)c(N5CCN(Cc6cn(CCCN(C)C)nn6)CC5)cc4[n+]3C)c(=O)oc2c1", "> 40 µM"),
    ("CCN(CC)c1ccc2cc(/C=C/c3ccc4cc(F)c(NCCN(C(C)C)C(C)C)cc4[n+]3C)c(=O)oc2c1", "15 µM"),
    ("CCN(CC)c1ccc2cc(/C=C/c3ccc4cc(F)c(N5CCN(C(=O)C(C)C)CC5)cc4[n+]3C)c(=O)oc2c1", "> 40 µM"),
    ("CCN(CC)c1ccc2cc(/C=C/c3ccc4cc(F)c(NCCc5cccs5)cc4[n+]3C)c(=O)oc2c1", "4.4 µM"),
    ("CCN(CC)c1ccc2cc(/C=C/c3ccc4cc(F)c(N5CCN(Cc6cn(CCCN7CCOCC7)nn6)CC5)cc4[n+]3C)c(=O)oc2c1", "> 40 µM"),
]
